IRF reporter by entry:
system: RAW-Dual (murine macrophage reporter line); assay: IRF reporter (Lucia luciferase) activity fold change vs agonist alone; higher = enhanced IRF activity; settings: modulator concentration 10 µM; agonist: LPS 0.1 ug/mL
PROPERTY_NAME: IRF reporter

FC(F)(F)c1nnc2ccc(NC3CCN(c4ncnc5c4CCCC5)CC3)nn12
1.46
CCCC(=O)Nc1ccc(OCC(O)CNC(C)C)c(C(C)=O)c1.Cl (configuration not stated)
1.01
O=C(C=Cc1cccnc1)c1cc2ccc1CCc1ccc(cc1)CC2
0.998
CCCOc1ccc(C=C2SC(N3CCN(c4ccccc4C)CC3)=NC2=O)cc1
0.988
COc1cccc(N2CCN(C3CCN(CC4CCOCC4)CC3)CC2)c1
1.26
CC1CC(OC(=O)C(O)c2ccccc2)CC(C)(C)C1 (configuration not stated)
1.25
CCCCN(CCCC)S(=O)(=O)c1ccc(N2CCCC2=O)c([N+](=O)[O-])c1
1.1
CN(C)CC/C=C1/c2ccccc2Sc2ccc(Cl)cc21
1.08
O=C1CCCc2[nH]ccc21
1.04
CC(C)(C)c1cc(C(=O)Oc2cccc3cccnc23)cc(C(C)(C)C)c1
1.25
Cc1ccc(-n2nc(C(C)(C)C)cc2NC(=O)NCc2cc(F)ccc2Oc2ccc3c(cnn3CCO)c2)cc1
1.19
O=C1NC(=O)c2c1cc1ccccc1c2-c1ccccc1
1.2
CC1CCC2C(C)(C)C3CC12CCC3(C)O (configuration not stated)
1.15
CC(=O)N1CCC(C(=O)NC(Cn2nccn2)c2ccccc2)CC1 (configuration not stated)
1.34
COc1cc(CNC2CCCc3ccccc32)cc(OC)c1OC (configuration not stated)
1.05
O=C(O)c1cc([N+](=O)[O-])c(Nc2cccc3ccccc23)c([N+](=O)[O-])c1
1.31
COCCCN1C(=O)C(=Cc2ccc(-c3ccc(Cl)cc3Cl)o2)SC1=S
1.01
C=CCN1C(=O)C(=C2C(=O)N(Cc3ccccc3F)c3ccccc32)SC1=S
1.37
CC(C)c1ccc(NC(=O)C2CCCCC2C(=O)O)cc1 (configuration not stated)
1.51
CC(C)(C)SCC(O)Cn1c2ccc(Br)cc2c2cc(Br)ccc21 (configuration not stated)
1.31
Brc1ccc(Cn2c(CN3CCCC3)nc3ccccc32)cc1
1.12
CC(=O)c1c(C)c2cnc(Nc3ccc(N4CCNCC4)cn3)nc2n(C2CCCC2)c1=O.Cl
0.898
COc1ccc(C=Nn2cc(-c3ccc(Cl)cc3)nc2N=Cc2cc(Br)cc(Br)c2O)cc1
1.08
COc1ccc2[nH]c(S(=O)Cc3ncc(C)c(OC)c3C)nc2n1 (configuration not stated)
1.11
CCOc1nc2cccc(C(=O)OC(C)OC(=O)OC3CCCCC3)c2n1Cc1ccc(-c2ccccc2-c2nnn[nH]2)cc1 (configuration not stated)
1.31
CN(C)CCC=C1c2ccccc2C=Cc2ccccc21.Cl
1.61
C[C@H](Cc1cc2c(c(C(N)=O)c1)N(CCCO)CC2)NCCOc1ccccc1OCC(F)(F)F
1.05
Cc1nnc(NN=Cc2ccc(O)c([N+](=O)[O-])c2)[nH]c1=O
0.979
COc1ccc(CNCc2cccc3ccccc23)cc1OC
1.06
CNC(=O)[C@@H](NC(=O)[C@H](CC(C)C)[C@H](O)C(=O)NO)C(C)(C)C
0.983
CC[C@H](Nc1ncnc2[nH]cnc12)c1nc2cccc(F)c2c(=O)n1-c1ccccc1
0.763
O=S(=O)(Cc1cccc(F)c1)N1C2CCC1CC(Oc1cccnc1)C2 (configuration not stated)
1.06
COC(=O)C1=CN(CC2CCCO2)C=C(C(=O)OC)C1c1cccc(OC)c1 (configuration not stated)
0.947
COc1ccc(-c2cc3nc(C)cc(NCCN4CCOCC4)n3n2)cc1OC
0.998
O=C(O[C@H]1C[C@H]2CC3C[C@@H](C1)N2CC3=O)c1c[nH]c2ccccc12
0.909
Cc1ccccc1-c1noc(-c2cc3ccccc3oc2=O)n1
1.08
Cc1cccc(N=c2scc(-c3ccc([N+](=O)[O-])cc3)n2-c2cccc(C)c2C)c1C
1.37
